Test system: β-Galactosidase (start codon region)
procedure_details: in vitro coupled transcription/translation in E. coli S-30 cell extract, β-galactosidase production
Type: biochemical
stated_conditions: read-out: PNA concentration required for 50 % inhibition (IC50) of β-galactosidase activity; S-30 cell extract, coupled transcription and translation
{LysNH2} = C-terminal lysine amide
attribute_measured: IC50 (nM)
I only need the number, in nM, no unit after it.

query: Which value of IC50 has been reported for 5 (GGTCATAGCTGTTTC; all peptide nucleic acid (PNA), 3' {LysNH2}; further chemistry not fully specified) [compound 5] in the records?
result: 10
